System: CCK-81 (Colorectal Carcinoma)
Experiment: Bliss excess, mean over the matrix (fraction); higher = more synergy
Entries annotated with measured Bliss excess
endpoint_label: Bliss excess

# compound, experimental_result
measured = [
    ("CN(CCO)CC[C@H](CSc1ccccc1)Nc1ccc(S(=O)(=O)NC(=O)c2ccc(N3CCC([C@@H](O)c4ccccc4-c4ccc(Cl)cc4)CC3)cc2)cc1S(=O)(=O)C(F)(F)F [AZD4320] + C=CCn1c(=O)c2cnc(Nc3ccc(N4CCN(C)CC4)cc3)nc2n1-c1cccc(C(C)(C)O)n1 [AZD1775] (first compound max 1 µM, partner max 1 µM)", -0.0198),
    ("Cn1cnc2c(F)c(Nc3ccc(Br)cc3Cl)c(C(=O)NOCCO)cc21 [Selumetinib] + CCN(CCO)CCCOc1ccc2c(Nc3cc(CC(=O)Nc4cccc(F)c4)[nH]n3)ncnc2c1 [AZD2811] (first compound max 10 µM, 7x7, partner max 1 µM)", 0.0101),
    ("COc1nnc2ccc(N3CCC(c4ccc(OCCN5CCN(C)C(=O)[C@H]5C)cc4)CC3)nn12 [AZD5153] + CC1(C)CCC(CN2CCN(c3ccc(C(=O)NS(=O)(=O)c4ccc(NCC5CCOCC5)c([N+](=O)[O-])c4)c(Oc4cnc5[nH]ccc5c4)c3)CC2)=C(c2ccc(Cl)cc2)C1 [Venetoclax] (first compound max 1 µM, 7x7, partner max 1 µM)", -0.054),
]

###

Test system: ARH-77 (Non-Cancerous)
Assay: combination Emax (second highest fraction inhibited in the dose matrix, 72 h); higher = more inhibition; extreme values may be limits of the assay
Entries annotated with measured combination Emax

# compound, combination Emax
rows = [
    ("CC(=O)c1c(C)c2cnc(Nc3ccc(N4CCNCC4)cn3)nc2n(C2CCCC2)c1=O [Palbociclib] + CN(CC[C@H](CSC1=CC=CC=C1)NC2=C(C=C(C=C2)S(=O)(=O)NC(=O)C3=CC=C(C=C3)N4CCC(CC4)[C@H](C5=CC=CC=C5C6=CC=C(C=C6)Cl)O)S(=O)(=O)C(F)(F)F)CCO [AZD4320] (first compound max 10 µM, 7x7, partner max 1 µM)", 0.899),
    ("C[C@@H](c1ccc2nccn2c1)n1nnc2ncc(-c3cnn(C)c3)nc21 [Savolitinib] + Cc1c2c(nn1C)CSCc1cc(n(C)n1)CSc1cc(c3ccccc3c1)OCCCc1c(C(=O)O)n(C)c3c-2c(Cl)ccc13 [AZD5991] (first compound max 1 µM, 7x7, partner max 1 µM)", 0.245),
    ("Cc1c2c(nn1C)CSCc1cc(n(C)n1)CSc1cc(c3ccccc3c1)OCCCc1c(C(=O)O)n(C)c3c-2c(Cl)ccc13 [AZD5991] + Cc1cc2ncnn2cc1Nc1ncc2c(n1)n(C1CCOCC1)c(=O)n2C [AZD7648] (first compound max 1 µM, 7x7, partner max 10 µM)", 0.835),
]

###

Entries annotated with measured Bliss excess
Tested on: 8-MG-BA (Glioblastoma)
Test: Bliss excess, mean over the matrix (fraction); higher = more synergy

# compound, Bliss excess
data = [
    ("NC1(C(=O)N[C@@H](CCO)c2ccc(Cl)cc2)CCN(c2ncnc3[nH]ccc23)CC1 [Capivasertib] + CC(C)n1c(=O)n(C)c2cnc3cc(F)c(-c4ccc(OCCCN5CCCCC5)nc4)cc3c21 [AZD1390] (first compound max 10 µM, 7x7, partner max 0.3 µM)", -0.0557),
    ("CN(C)CCCOc1ccc(-c2ccc3ncc4c(c3c2)n(C2CCOCC2)c(=O)n4C)cn1 [AZD0156] + C[C@@H]1COCCN1C2=NC(=NC(=C2)C3(CC3)[S@](=N)(=O)C)C4=C5C=CNC5=NC=C4 [AZD6738] (first compound max 1 µM, 7x7, partner max 10 µM)", 0.0389),
    ("CCN(CCO)CCCOc1ccc2c(Nc3cc(CC(=O)Nc4cccc(F)c4)[nH]n3)ncnc2c1 [AZD2811] + O=C(c1cc(Cc2n[nH]c(=O)c3ccccc23)ccc1F)N1CCN(C(=O)C2CC2)CC1 [Olaparib] (first compound max 1 µM, 7x7, partner max 10 µM)", 0.0327),
    ("Cc1c2c(nn1C)CSCc1cc(n(C)n1)CSc1cc(c3ccccc3c1)OCCCc1c(C(=O)O)n(C)c3c-2c(Cl)ccc13 [AZD5991] + Cn1cnc2c(F)c(Nc3ccc(Br)cc3Cl)c(C(=O)NOCCO)cc21 [Selumetinib] (first compound max 1 µM, 7x7, partner max 3 µM)", 0.098),
    ("COc1nnc2ccc(N3CCC(c4ccc(OCCN5CCN(C)C(=O)[C@H]5C)cc4)CC3)nn12 [AZD5153] + Cn1cnc2c(F)c(Nc3ccc(Br)cc3Cl)c(C(=O)NOCCO)cc21 [Selumetinib] (first compound max 1 µM, 7x7, partner max 10 µM)", -0.007),
    ("Cc1cc2ncnn2cc1Nc1ncc2c(n1)n(C1CCOCC1)c(=O)n2C [AZD7648] + O=C(c1cc(Cc2n[nH]c(=O)c3ccccc23)ccc1F)N1CCN(C(=O)C2CC2)CC1 [Olaparib] (first compound max 10 µM, 7x7, partner max 10 µM)", -0.0184),
    ("CC1(C)CCC(CN2CCN(c3ccc(C(=O)NS(=O)(=O)c4ccc(NCC5CCOCC5)c([N+](=O)[O-])c4)c(Oc4cnc5[nH]ccc5c4)c3)CC2)=C(c2ccc(Cl)cc2)C1 [Venetoclax] + C=CCn1c(=O)c2cnc(Nc3ccc(N4CCN(C)CC4)cc3)nc2n1-c1cccc(C(C)(C)O)n1 [AZD1775] (first compound max 1 µM, partner max 1 µM)", -0.0307),
    ("NC1(C(=O)N[C@@H](CCO)c2ccc(Cl)cc2)CCN(c2ncnc3[nH]ccc23)CC1 [Capivasertib] + C[C@@H]1COCCN1C2=NC(=NC(=C2)C3(CC3)[S@](=N)(=O)C)C4=C5C=CNC5=NC=C4 [AZD6738] (first compound max 10 µM, 7x7, partner max 10 µM)", -0.004),
    ("COc1cccc(OCCCN)c1-c1cc(Nc2cnc(C#N)cn2)n[nH]1 [Prexasertib] + CCc1c2c(nc3ccc(O)cc13)-c1cc3c(c(=O)n1C2)COC(=O)[C@]3(O)CC [SN-38] (first compound max 1 µM, 7x7, partner max 0.3 µM)", -0.0166),
    ("C=CCn1c(=O)c2cnc(Nc3ccc(N4CCN(C)CC4)cc3)nc2n1-c1cccc(C(C)(C)O)n1 [AZD1775] + C[C@@H]1COCCN1C2=NC(=NC(=C2)C3(CC3)[S@](=N)(=O)C)C4=C5C=CNC5=NC=C4 [AZD6738] (first compound max 1 µM, partner max 10 µM)", -0.032),
    ("CC1(C)CCC(CN2CCN(c3ccc(C(=O)NS(=O)(=O)c4ccc(NCC5CCOCC5)c([N+](=O)[O-])c4)c(Oc4cnc5[nH]ccc5c4)c3)CC2)=C(c2ccc(Cl)cc2)C1 [Venetoclax] + CN(C)CCCOc1ccc(-c2ccc3ncc4c(c3c2)n(C2CCOCC2)c(=O)n4C)cn1 [AZD0156] (first compound max 1 µM, 7x7, partner max 1 µM)", -0.0171),
    ("CS(=O)(=O)CCNCc1ccc(-c2ccc3ncnc(Nc4ccc(OCc5cccc(F)c5)c(Cl)c4)c3c2)o1 [Lapatinib] + C[C@@H](Oc1cc(-c2cnn(C3CCNCC3)c2)cnc1N)c1c(Cl)ccc(F)c1Cl [Crizotinib] (first compound max 10 µM, 7x7, partner max 10 µM)", -0.0365),
    ("Cc1cc2ncnn2cc1Nc1ncc2c(n1)n(C1CCOCC1)c(=O)n2C [AZD7648] + C[C@@H]1COCCN1C2=NC(=NC(=C2)C3(CC3)[S@](=N)(=O)C)C4=C5C=CNC5=NC=C4 [AZD6738] (first compound max 10 µM, 7x7, partner max 10 µM)", 0.0602),
    ("COc1nnc2ccc(N3CCC(c4ccc(OCCN5CCN(C)C(=O)[C@H]5C)cc4)CC3)nn12 [AZD5153] + C[C@@H]1COCCN1C2=NC(=NC(=C2)C3(CC3)[S@](=N)(=O)C)C4=C5C=CNC5=NC=C4 [AZD6738] (first compound max 1 µM, 7x7, partner max 10 µM)", -0.0849),
]

###

System: U-2-OS (Osteosarcoma)
Assay: Bliss excess, mean over the matrix (fraction); higher = more synergy
Threshold rule: Bliss excess greater than or equal to -0.03 is yes (1); below that, no (0).

# compound, measurement_target, assigned_label
data = [
    ("Cc1cc2ncnn2cc1Nc1ncc2c(n1)n(C1CCOCC1)c(=O)n2C [AZD7648] + COc1cc([C@@H]2c3cc4c(cc3[C@@H](O[C@@H]3O[C@@H]5CO[C@@H](C)O[C@H]5[C@H](O)[C@H]3O)[C@H]3COC(=O)[C@H]23)OCO4)cc(OC)c1O [Etoposide] (first compound max 10 µM, 7x7, partner max 10 µM)", "U-2-OS (Osteosarcoma)", "yes (1)"),
    ("C=CCn1c(=O)c2cnc(Nc3ccc(N4CCN(C)CC4)cc3)nc2n1-c1cccc(C(C)(C)O)n1 [AZD1775] + Nc1ccn([C@@H]2O[C@H](CO)[C@@H](O)C2(F)F)c(=O)n1 [Gemcitabine] (first compound max 1 µM, partner max 0.3 µM)", "U-2-OS (Osteosarcoma)", "yes (1)"),
    ("CC(=O)c1c(C)c2cnc(Nc3ccc(N4CCNCC4)cn3)nc2n(C2CCCC2)c1=O [Palbociclib] + CN(CC[C@H](CSC1=CC=CC=C1)NC2=C(C=C(C=C2)S(=O)(=O)NC(=O)C3=CC=C(C=C3)N4CCC(CC4)[C@H](C5=CC=CC=C5C6=CC=C(C=C6)Cl)O)S(=O)(=O)C(F)(F)F)CCO [AZD4320] (first compound max 10 µM, 7x7, partner max 1 µM)", "U-2-OS (Osteosarcoma)", "no (0)"),
    ("CC(=O)c1c(C)c2cnc(Nc3ccc(N4CCNCC4)cn3)nc2n(C2CCCC2)c1=O [Palbociclib] + CC1(C)CCC(CN2CCN(c3ccc(C(=O)NS(=O)(=O)c4ccc(NCC5CCOCC5)c([N+](=O)[O-])c4)c(Oc4cnc5[nH]ccc5c4)c3)CC2)=C(c2ccc(Cl)cc2)C1 [Venetoclax] (first compound max 10 µM, 7x7, partner max 1 µM)", "U-2-OS (Osteosarcoma)", "yes (1)"),
    ("CC1(C)CCC(CN2CCN(c3ccc(C(=O)NS(=O)(=O)c4ccc(NCC5CCOCC5)c([N+](=O)[O-])c4)c(Oc4cnc5[nH]ccc5c4)c3)CC2)=C(c2ccc(Cl)cc2)C1 [Venetoclax] + Cn1cnc2c(F)c(Nc3ccc(Br)cc3Cl)c(C(=O)NOCCO)cc21 [Selumetinib] (first compound max 1 µM, 7x7, partner max 3 µM)", "U-2-OS (Osteosarcoma)", "no (0)"),
]

All values here come from the supplement of paper PMC11061612.
